assay: Maximum solubility of the compound; format: physicochemical
endpoint: solubility (µM)

smilesRepresentation: Nc1ccnc(SCCCCc2ccccc2)n1
endpoint: solubility
unitAnnotation: µM
measuredResult: 500
--
smilesRepresentation: Nc1ccn(Cc2ccccc2)c(=O)n1
endpoint: solubility
unitAnnotation: µM
measuredResult: 2500
--
smilesRepresentation: CCCCCCCCOc1nccc(N)n1
endpoint: solubility
unitAnnotation: µM
measuredResult: 250
--
smilesRepresentation: Nc1ccn(CCCCc2ccccc2)c(=O)n1
endpoint: solubility
unitAnnotation: µM
measuredResult: 1000
--
smilesRepresentation: Nc1ccn(-c2cccc3ccccc23)c(=O)n1
endpoint: solubility
unitAnnotation: µM
measuredResult: 500
--
smilesRepresentation: Nc1ccnc(SCCCOc2ccccc2)n1
endpoint: solubility
unitAnnotation: µM
measuredResult: 1000
--
smilesRepresentation: Nc1ccnc(Sc2ccc3ccccc3c2)n1
endpoint: solubility
unitAnnotation: µM
measuredResult: 500
--
smilesRepresentation: Nc1ccnc(SCc2ccc(Cl)cc2)n1
endpoint: solubility
unitAnnotation: µM
measuredResult: 1000
